B1: peptide HD2 (from tick evasin EVA4) / CCL4 (biotinylated, synthetic) (parent)
chain 1: EEDDYTAYAPLTCYFT
chain 2: APMGSDPPTACCFSYTARKLPRNFVVDYYETSSLCSQPAVVFQTKRSKQVCADPSESWVQEYVYDLELN

# Variants of: B1
# DETAILS: with CCL4 (biotinylated, synthetic); scale: log2
Field: enrichment. Provide a value for each of the variants that follow.

Can you look up the measured enrichment of chain 1 P10M for me? -8.07

Can you look up the measured enrichment of chain 1 E2C for me? -9.58

Can you look up the measured enrichment of chain 1 D3C for me? -9.47

Can you look up the measured enrichment of chain 1 E1C for me? -9.32

Can you look up the measured enrichment of chain 1 Y5N for me? -7.28

Can you look up the measured enrichment of chain 1 Y8R for me? -7.75

Can you look up the measured enrichment of chain 1 Y5Q for me? -4.93

Can you look up the measured enrichment of chain 1 P10N for me? -7.59

Can you look up the measured enrichment of chain 1 D3K for me? -4.93

Can you look up the measured enrichment of chain 1 P10K for me? -6.53

Can you look up the measured enrichment of chain 1 T6C for me? -10.7
